- System: NCI/ADR-RES
- protocol.description: NCI tumour cell line growth inhibition, 48 h
Active and inactive are the calls of the source. No stated cut-off is given here; in the data, active = GI50 up to about 1.1 µM and inactive = higher.
Reported GI50 values for a set of compounds
experimental.endpoint: GI50

In [3]: df
Out[3]:
                                   compound  test_target          test_result
0   C/C(=N\O)c1ccc(Nc2nc3ccccc3c3occc23)cc1  NCI/ADR-RES   6.76 µM (inactive)
1  Cc1c(S(=O)(=O)O)ccc(/N=N/c2c(O)c(C(=O)O)cc3ccccc23)c1Cl  NCI/ADR-RES  > 100 µM (inactive)
2  COc1cc2c(ccc3c4cc(OC)c(OC)cc4c[n+](C)c23)cc1O [FAGARONINE]  NCI/ADR-RES   63.2 µM (inactive)
3   O=C(CCN1CCCC1)Nc1ccc2sc3ccccc3c(=O)c2n1  NCI/ADR-RES   13.3 µM (inactive)
4  CC(=O)Nc1ccc(N2C(=O)/C(=C\c3cccc(Oc4ccccc4)c3)SC2c2ccccc2)cc1 (stereo not given)  NCI/ADR-RES   29.5 µM (inactive)
5  COc1ccc(C2Oc3c(cccc3-c3c(-c4ccc(O)cc4)oc4cc(O)cc(O)c4c3=O)C(=O)C2O)cc1O (stereo not given)  NCI/ADR-RES  > 100 µM (inactive)
6              CC[C@H](O)[C@H](C)C=C1SCCCS1  NCI/ADR-RES  > 100 µM (inactive)
7  CSc1nc(SC)c2c(C)cn(C3OC(C)C(O)C(O)C3O)c2n1 (stereo not given)  NCI/ADR-RES   67.3 µM (inactive)
8  O=C(c1c(F)c(F)c(F)c(F)c1F)c1c(F)c(F)c(F)c(F)c1F  NCI/ADR-RES   3.13 µM (inactive)
9  COc1cc(/C=C/c2ccc(/C=C/c3cc(OC)c(OC)c(OC)c3)cc2)cc(OC)c1OC  NCI/ADR-RES   22.2 µM (inactive)
